# Test system: OVCAR-5 ovarian
# measurement protocol: NCI tumour cell line growth inhibition, 48 h
Where a SMILES comes first, the peptide text is derived from it. [ ]: non-standard residue; d: D form. The star is where a group is joined. Cbz = O=C(OCc1ccccc1)*; Boc = CC(C)(C)OC(=O)*; Aib = CC(C)(N)C(=O)O; OBn = c1ccc(CO*)cc1; OtBu = CC(C)(C)O*; βAla = NCCC(=O)O
Class satisfied: TGI at least 50 µM. Class not satisfied: TGI below 50 µM.

[
  {
    "compound": "CC[N+](CCCCCCCCCC[N+](CC)(c1ccccn1)c1ccccn1)(c1ccccn1)c1ccccn1",
    "test target": "OVCAR-5 ovarian",
    "answer label": "not satisfied"
  },
  {
    "compound": "C=CCn1c(C)nc2cc(Nc3nc(Nc4ccc5nc(C)n(CC=C)c5c4)c4ccccc4n3)ccc21",
    "test target": "OVCAR-5 ovarian",
    "answer label": "not satisfied"
  },
  {
    "compound": "Cc1ccc(O)c(C2=NNC(c3cccc(Br)c3)C2)c1 (stereo not given)",
    "test target": "OVCAR-5 ovarian",
    "answer label": "satisfied"
  },
  {
    "compound": "C[CH2][Sn]1([CH2]C)[O]C(=O)[O][Sn]([CH2]C)([CH2]C)[O]1",
    "test target": "OVCAR-5 ovarian",
    "answer label": "satisfied"
  },
  {
    "compound": "CC(C)(C)N1Cc2ccccc2/C(=C/Sc2ccccc2)C1=O",
    "test target": "OVCAR-5 ovarian",
    "answer label": "not satisfied"
  },
  {
    "compound": "CCCCCCCCCCCCCCCCNc1nc(=O)n(C2CC(O)C(CO)O2)cc1F (stereo not given)",
    "test target": "OVCAR-5 ovarian",
    "answer label": "not satisfied"
  },
  {
    "compound": "CCCCSc1n/c(=C\\c2ccc(N(C)C)cc2)c2nnnn12",
    "test target": "OVCAR-5 ovarian",
    "answer label": "satisfied"
  },
  {
    "compound": "COc1cc(-c2nc3ccc(C)cc3[nH]2)ccc1OCC(=O)N=Nc1c(O)[nH]c2ccccc12",
    "test target": "OVCAR-5 ovarian",
    "answer label": "not satisfied"
  },
  {
    "compound": "O=C(NNC(=S)Nc1ccccc1)c1csc(NC(=S)NC2CCCCC2)n1",
    "test target": "OVCAR-5 ovarian",
    "answer label": "satisfied"
  },
  {
    "compound": "CC(=O)O[C@H]1C(N(C)C(=O)c2ccccc2)CC[C@]2(C)C3CC[C@@]4(C)C(CC(O)[C@@H]4C(C)N(C)C)[C@@H]3CCC12 (stereo not given in full)",
    "test target": "OVCAR-5 ovarian",
    "answer label": "satisfied"
  },
  {
    "compound": "CN1CC(c2ccccc2)N(CCCCN2CC(c3ccccc3)N(C)CC2c2ccccc2)CC1c1ccccc1 (stereo not given)",
    "test target": "OVCAR-5 ovarian",
    "answer label": "satisfied"
  },
  {
    "compound": "Cc1nc(N)sc1C(=O)/C=C/c1ccc(/C=C/C(=O)c2sc(NC(=O)CCCCCCCCC(=O)Nc3nc(C)c(C(=O)/C=C/c4ccc(/C=C/C(=O)c5sc(N)nc5C)cc4)s3)nc2C)cc1",
    "test target": "OVCAR-5 ovarian",
    "answer label": "satisfied"
  },
  {
    "compound": "CC1=CC[C@@H]2CC[C@]3(C)[C@H](CC[C@@H]4[C@@]5(C)CCCNC(C)(C)[C@@H]5CC[C@]43C)[C@H]2[C@@H]1C",
    "test target": "OVCAR-5 ovarian",
    "answer label": "not satisfied"
  },
  {
    "compound": "Clc1nc(Oc2ccccc2)nc(-c2cn(-c3ccccc3)c3ccccc23)n1",
    "test target": "OVCAR-5 ovarian",
    "answer label": "satisfied"
  },
  {
    "compound": "CC(=O)NC(CCCCNC(=O)OCc1ccccc1)C(=O)NCc1ccccc1 (stereo not given)",
    "test target": "OVCAR-5 ovarian",
    "answer label": "satisfied"
  },
  {
    "compound": "CC(=O)Oc1cc(C)ccc1[C@]1(C)CC[C@H](C)/C1=C\\Br",
    "test target": "OVCAR-5 ovarian",
    "answer label": "not satisfied"
  },
  {
    "compound": "COc1ccc(NC2Oc3cc4c(cc3C(c3cc(OC)c(O)c(OC)c3)C2C)OCO4)cc1 (stereo not given)",
    "test target": "OVCAR-5 ovarian",
    "answer label": "satisfied"
  },
  {
    "compound": "COc1cc(C2c3cc4c(cc3[C@@H](Nc3ccc(C(=O)O)cc3)C3COC(=O)[C@H]23)OCO4)cc(OC)c1O (stereo not given in full)",
    "test target": "OVCAR-5 ovarian",
    "answer label": "satisfied"
  },
  {
    "compound": "CCOc1ccc(/C=C/C(=O)c2ccccc2)cc1",
    "test target": "OVCAR-5 ovarian",
    "answer label": "not satisfied"
  },
  {
    "compound": "CCCCCCNC(=O)C1=C(C)NC(C)=C(C(=O)NCCCCCC)C1",
    "test target": "OVCAR-5 ovarian",
    "answer label": "satisfied"
  },
  {
    "compound": "CN1CCN(CCSC2Cc3cc(Cl)ccc3Sc3ccccc32)CC1 (stereo not given)",
    "test target": "OVCAR-5 ovarian",
    "answer label": "not satisfied"
  },
  {
    "compound": "Oc1ccc(N=Nc2ccc(Cl)cc2)cc1",
    "test target": "OVCAR-5 ovarian",
    "answer label": "not satisfied"
  },
  {
    "compound": "COc1cc(OC2OC(C)C(O)C(O)C2O)cc2oc(-c3ccc(O)cc3)c(CC=C(C)C)c(=O)c12 (stereo not given)",
    "test target": "OVCAR-5 ovarian",
    "answer label": "satisfied"
  },
  {
    "compound": "OC1OC(c2ccco2)C(F)(F)C(F)(F)C1(F)F (stereo not given)",
    "test target": "OVCAR-5 ovarian",
    "answer label": "satisfied"
  },
  {
    "compound": "CC(C)(C)OC(=O)CC(NC(=O)OC(C)(C)C)C(=O)NC(CCCCNC(=O)OCc1ccccc1)C(=O)NC(C)(C)C(=O)NCCC(=O)OCc1ccccc1 (stereo not given) (Boc-D(OtBu)K(Cbz)[Aib][βAla]-OBn; configuration not given here)",
    "test target": "OVCAR-5 ovarian",
    "answer label": "satisfied"
  },
  {
    "compound": "COc1ccc(-c2c(C#N)c(-c3ccccc3)n(NS(=O)(=O)c3ccccc3)c(=O)c2C#N)cc1",
    "test target": "OVCAR-5 ovarian",
    "answer label": "satisfied"
  },
  {
    "compound": "O=C(Oc1ccc(O)c2c(=O)n3c(cc12)[nH]c1ccccc13)c1ccccc1",
    "test target": "OVCAR-5 ovarian",
    "answer label": "satisfied"
  },
  {
    "compound": "CCN(CC)CCn1c2c3ccccc3ccc2c2oc(=O)c3ccccc3c21",
    "test target": "OVCAR-5 ovarian",
    "answer label": "satisfied"
  }
]

* * *

# Tested on: OVCAR-3 ovarian
# measurement protocol: NCI tumour cell line growth inhibition, 48 h
*1 amine or outer side, *2 acyl side, *3 side chain or, on linkers, in order; H or OH if unused. Where a SMILES comes first, the peptide text is derived from it. Bridges are numbered along the chain shown (N, C = ends). [ ]: non-standard residue; d: D form. ξ: configuration not given here. X4 = CCC(C)C(N[*:1])C(O)CC(=O)O[C@H](C(=O)C(C)C(=O)[*:2])C(C)C; NMeY = CN[C@@H](Cc1ccc(O)cc1)C(=O)O; ξNMeL = CNC(CC(C)C)C(=O)O; ξT = CC(O)C(N)C(=O)O
measurement type: TGI (µM)

[
  {
    "compound": "COC(=O)C(COC(=O)/C=C/c1ccc(OC(C)=O)c(OC(C)=O)c1)OC(=O)/C=C/c1ccc(OC(C)=O)c(OC(C)=O)c1 (stereo unspecified)",
    "inequality sign": "=",
    "observed measurement": 29.9
  },
  {
    "compound": "COc1cc(/C=C/c2cc(C(F)(F)F)[nH]c(=O)n2)ccc1OCc1ccccc1F",
    "inequality sign": "=",
    "observed measurement": 17.4
  },
  {
    "compound": "COc1cc([C@H](C)c2ccc3ccccc3c2)cc(OC)c1OC",
    "inequality sign": ">",
    "observed measurement": 100
  },
  {
    "compound": "COc1cc(OC2OC(C)C(O)C(O)C2O)cc2oc(-c3ccc(O)cc3)c(CC=C(C)C)c(=O)c12 (stereo unspecified)",
    "inequality sign": "=",
    "observed measurement": 66.3
  },
  {
    "compound": "CCC(C)C1NC(=O)C(NC(=O)C(CC(C)C)N(C)C(=O)[C@@H]2CCCN2)C(C)OC(=O)[C@H](Cc2ccc(OC)cc2)N(C)C(=O)[C@@H]2CCCN2C(=O)[C@H](CC(C)C)NC(=O)C(C)C(=O)[C@H](C(C)C)OC(=O)CC1O (stereo partly specified) (H-P[ξNMeL][ξT][X4]LP[NMeY](Me); ester 3-C)",
    "inequality sign": "=",
    "observed measurement": 0.00686
  },
  {
    "compound": "Cc1nn(C(=O)c2ccccc2O)c2c1C(c1ccccc1)SC(N)=N2 (stereo unspecified)",
    "inequality sign": "=",
    "observed measurement": 7.22
  }
]
